settings: rat, in vivo, po, 250 mg/kg
Known AUC(0-24) of a selection of molecules
Quantity name: AUC(0-24) (µg·h/mL)

> print(dat)
                                   molecule  quantity.name  measured
1  CN(C)C(=N)NC(=N)N.C[C@H](N)C(=O)O [Metformin alaninate, metformin alaninate]      AUC(0-24)    126.09
2  CC[C@H](C)[C@H](N)C(=O)O.CN(C)C(=N)NC(=N)N [Metformin isoleucinate, metformin isoleucinate]      AUC(0-24)    148.77
3  CC(C)[C@H](N)C(=O)O.CN(C)C(=N)NC(=N)N [Metformin valinate, metformin valinate]      AUC(0-24)    123.05
4  CN(C)C(=N)NC(=N)N.NC(=O)C[C@H](N)C(=O)O [Metformin asparaginate, metformin asparaginate]      AUC(0-24)    153.76

====

assay: in vivo; conditions: female, Sprague Dawley, rat, plasma, po, 250 mg/kg
Structures can show the parent of a compound that is named as a salt.
Quantity name: concentration at 4 h

> print(dat)
                                   compound    measured
1  CN(C)C(=N)N=C(N)N [Metformin hydrochloride, metformin hydrochloride, reference compound]  6830 ng/mL

====

Known Metformin base concentration in plasma, 2 h post-administration of a selection of molecules
settings: rat, in vivo, po, 250 mg/kg
Quantity name: Metformin base concentration in plasma, 2 h post-administration (µg/mL)

> print(dat)
                                   molecule      u  measured
1  CN(C)C(=N)NC(=N)N.NC(=O)C[C@H](N)C(=O)O [Metformin asparaginate, metformin asparaginate]  µg/mL      9.74
2  CC[C@H](C)[C@H](N)C(=O)O.CN(C)C(=N)NC(=N)N [Metformin isoleucinate, metformin isoleucinate]  µg/mL     10.05
3  CN(C)C(=N)NC(=N)N.C[C@H](N)C(=O)O [Metformin alaninate, metformin alaninate]  µg/mL     14.97
4  CC(C)[C@H](N)C(=O)O.CN(C)C(=N)NC(=N)N [Metformin valinate, metformin valinate]  µg/mL     12.90

====

settings: rat, in vivo, po, 250 mg/kg
Known Metformin base concentration in plasma, 0.5 h post-administration of a selection of molecules
Quantity name: Metformin base concentration in plasma, 0.5 h post-administration (µg/mL)

> print(dat)
                                   molecule  measured
1  CN(C)C(=N)NC(=N)N.C[C@H](N)C(=O)O [Metformin alaninate, metformin alaninate]     14.77
2  CC(C)[C@H](N)C(=O)O.CN(C)C(=N)NC(=N)N [Metformin valinate, metformin valinate]      8.75
3  CN(C)C(=N)NC(=N)N.NC(=O)C[C@H](N)C(=O)O [Metformin asparaginate, metformin asparaginate]     10.72
4  CC[C@H](C)[C@H](N)C(=O)O.CN(C)C(=N)NC(=N)N [Metformin isoleucinate, metformin isoleucinate]     12.53

====

details: Groups B-K, 250 mg/kg; Mean ± SD
Quantity name: Body weight (g) On administration day

> print(dat)
                                   compound                          quantity.name  u  measured
1  CN(C)C(=N)NC(=N)N.C[C@H](N)C(=O)O [Metformin alaninate, metformin alaninate]  Body weight (g) On administration day  g    202.49
2  CC[C@H](C)[C@H](N)C(=O)O.CN(C)C(=N)NC(=N)N [Metformin isoleucinate, metformin isoleucinate]  Body weight (g) On administration day  g    197.30
3  CC(C)[C@H](N)C(=O)O.CN(C)C(=N)NC(=N)N [Metformin valinate, metformin valinate]  Body weight (g) On administration day  g    193.85
4  CN(C)C(=N)NC(=N)N.NC(=O)C[C@H](N)C(=O)O [Metformin asparaginate, metformin asparaginate]  Body weight (g) On administration day  g    191.98

====

assay: in vivo; conditions: female, Sprague Dawley, rat, plasma, po, 250 mg/kg
Counter-ions that a name gives are not always drawn.
Quantity name: concentration at 2 h (ng/mL)

> print(dat)
                                   molecule      u  measured
1  CN(C)C(=N)N=C(N)N [Metformin hydrochloride, metformin hydrochloride, reference compound]  ng/mL     11900

====

details: Groups L-U, 750 mg/kg; first column of this head; Mean ± SD
Quantity name: Body weight (g) On first administration day

> print(dat)
                                   compound  measured
1  CC[C@H](C)[C@H](N)C(=O)O.CN(C)C(=N)NC(=N)N [Metformin isoleucinate, metformin isoleucinate]    203.33
2  CN(C)C(=N)NC(=N)N.NC(=O)C[C@H](N)C(=O)O [Metformin asparaginate, metformin asparaginate]    201.60
3  CC(C)[C@H](N)C(=O)O.CN(C)C(=N)NC(=N)N [Metformin valinate, metformin valinate]    206.48
4  CN(C)C(=N)NC(=N)N.C[C@H](N)C(=O)O [Metformin alaninate, metformin alaninate]    200.80

====

assay: in vivo; details: female, Sprague Dawley, rat, plasma, po, 250 mg/kg
Counter-ions that a name gives are not always drawn.
Quantity name: Tmax (min)

> print(dat)
                                   molecule  measured
1  CN(C)C(=N)N=C(N)N [Metformin hydrochloride, metformin hydrochloride, reference compound]        30

====

Known Blood glucose levels before TI/RI administration, Day −3 (before STZ administration) of a selection of compounds
test system: rat model of streptozotocin-induced diabetes; assay: Blood glucose levels in rat model of streptozotocin-induced diabetes, 14 days oral; settings: rats; baseline before STZ and before first TI/RI administration; mean ± SD
Counter-ions that a name gives are not always drawn.
Quantity name: Blood glucose levels before TI/RI administration, Day −3 (before STZ administration) (mg/dL)

> print(dat)
                                   compound      u  measured
1  CN(C)C(=N)N=C(N)N [Metformin hydrochloride, metformin hydrochloride, reference compound]  mg/dL    120.00
2  CN(C)C(=N)NC(=N)N.C[C@H](N)C(=O)O [Metformin alaninate, metformin alaninate]  mg/dL    121.33
3  CC(C)[C@H](N)C(=O)O.CN(C)C(=N)NC(=N)N [Metformin valinate, metformin valinate]  mg/dL    120.00
4  CN(C)C(=N)NC(=N)N.NC(=O)C[C@H](N)C(=O)O [Metformin asparaginate, metformin asparaginate]  mg/dL    116.33
5  CC[C@H](C)[C@H](N)C(=O)O.CN(C)C(=N)NC(=N)N [Metformin isoleucinate, metformin isoleucinate]  mg/dL    115.33

====

details: Groups L-U, 750 mg/kg; second column of this head; Mean ± SD
Quantity name: Body weight (g) On first administration day

> print(dat)
                                   molecule  u  measured
1  CC[C@H](C)[C@H](N)C(=O)O.CN(C)C(=N)NC(=N)N [Metformin isoleucinate, metformin isoleucinate]  g    196.80
2  CN(C)C(=N)NC(=N)N.C[C@H](N)C(=O)O [Metformin alaninate, metformin alaninate]  g    195.43
3  CC(C)[C@H](N)C(=O)O.CN(C)C(=N)NC(=N)N [Metformin valinate, metformin valinate]  g    194.90
4  CN(C)C(=N)NC(=N)N.NC(=O)C[C@H](N)C(=O)O [Metformin asparaginate, metformin asparaginate]  g    196.93

====

conditions: rat, in vivo, po, 250 mg/kg
Known Cmax of a selection of molecules
Quantity name: Cmax (ng/mL)

> print(dat)
                                   molecule      u  measured
1  CC(C)[C@H](N)C(=O)O.CN(C)C(=N)NC(=N)N [Metformin valinate, metformin valinate]  ng/mL     13700
2  CN(C)C(=N)NC(=N)N.NC(=O)C[C@H](N)C(=O)O [Metformin asparaginate, metformin asparaginate]  ng/mL     16270
3  CC[C@H](C)[C@H](N)C(=O)O.CN(C)C(=N)NC(=N)N [Metformin isoleucinate, metformin isoleucinate]  ng/mL     21430
4  CN(C)C(=N)NC(=N)N.C[C@H](N)C(=O)O [Metformin alaninate, metformin alaninate]  ng/mL     16400

====

test system: blood glucose level; experiment: Effect of metformin compounds on the glucokinetic profile after oral glucose overload; format: in vivo, Rat; conditions: rat, 750 mg/kg referred to metformin base; 0.25 h post-glucose overload; mean ± SD; *p<0.05 vs vehicle
Structures can show the parent of a compound that is named as a salt.
Quantity name: Blood glucose level, 0.25 h post-glucose overload (mg/dL)

> print(dat)
                                   compound  measured
1  CN(C)C(=N)N=C(N)N [Metformin hydrochloride, metformin hydrochloride, reference compound]     93.75
2  CC(C)[C@H](N)C(=O)O.CN(C)C(=N)NC(=N)N [Metformin valinate, metformin valinate]    102.50
3  CN(C)C(=N)NC(=N)N.C[C@H](N)C(=O)O [Metformin alaninate, metformin alaninate]     90.50
4  CN(C)C(=N)NC(=N)N.NC(=O)C[C@H](N)C(=O)O [Metformin asparaginate, metformin asparaginate]     94.50
